Test: qHTS of pediatric cancer cell lines to identify multiple opportunities for drug repurposing: Confirmatory screen for RD cells (AID 1347124);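 also: cells exposed to compound for 48 h before viability readout; nearly all actives have a fitted effect of over 65% in size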; also: potency is read from the fitted curve at half-maximal effect
Conditions: RD rhabdomyosarcoma cell viability; series mostly up to 45.9 µM
Records with an inconclusive call do not appear. Activity calls are given as the source filed them. Calls follow the shape of the dose curve; as a rule, active = well fitted cell-killing curve with a large enough effect; inconclusive = small, poorly fitted or top-dose-only effect, or effect the other way; inactive = no such curve, though single readings can be large or run the other way.
assay-readout: Potency

compound	obs-value
CC=C(C)C(=O)O[C@H]1C(C)=C[C@]23C(=O)[C@@H](C=C(CO)[C@@H](O)[C@]12O)[C@H]1[C@@H](C[C@H]3C)C1(C)C	inactive
CCc1ccc(OCc2ccccc2C(=O)Nc2ccc3nc(C)cc(N)c3c2)cc1	8270 nM (active)
COc1ccc2c(Oc3ccc(NC(=O)c4c(C)n(CC(C)(C)O)n(-c5ccccc5)c4=O)cc3F)ccnc2c1	inactive
O=c1[nH]cnc2c1ncn2[C@H]1CC[C@@H](CO)O1	inactive
CN(C)C1CCN(C(=O)c2ccc(NC(=O)Nc3nc(N4CCOCC4)nc(N4CCOCC4)n3)cc2)CC1	293 nM (active)
CC[C@@H]1C=C(C)C[C@H](C)C[C@H](OC)[C@H]2O[C@@](O)(C(=O)C(=O)N3CCCC[C@@H]3C(=O)O[C@H](C(C)=C[C@@H]3CC[C@H](Cl)[C@H](OC)C3)[C@H](C)[C@@H](O)CC1=O)[C@H](C)C[C@H]2OC	inactive
CC(C)n1nc(-c2ccc3oc(N)nc3c2)c2c(N)ncnc21	208 nM (active)
N[C@@]1(C(=O)O)CS(=O)(=O)[C@H]2[C@H](C(=O)O)[C@H]21	inactive
Nc1ncnc2c1ncn2[C@@H]1O[C@@H](CO)[C@H](O)[C@H]1O	inactive
OC[C@H]1O[C@@H](n2cnc3c2NC=NC[C@@H]3O)C[C@H]1O	inactive
CC1(C)S[C@H]2[C@H](NC(=O)[C@@H](N)c3ccc(O)cc3)C(=O)N2[C@@H]1C(=O)O	inactive
COc1ccc(-c2nc(N3CCOCC3)c3sc(CN(C)c4ncc(C(=O)NO)cn4)cc3n2)cn1	2330 nM (active)
CO[C@H]1C[C@@H]2CC[C@@H](C)[C@@](O)(O2)C(=O)C(=O)N2CCCC[C@@H]2C(=O)O[C@H]([C@H](C)C[C@@H]2CC[C@H](OCCO)[C@H](OC)C2)CC(=O)[C@H](C)C=C(C)[C@@H](O)[C@@H](OC)C(=O)[C@H](C)C[C@H](C)C=CC=CC=C1C	inactive
COc1cc2ncnc(Nc3ccc(F)c(Cl)c3)c2cc1OCCCN1CCOCC1	1510 nM (active)
CC(C)(C(=O)NCC(F)(F)C(F)(F)F)C(=O)N[C@@H]1C(=O)Nc2ccccc2-c2ccccc21	inactive
O=C(Nc1cccc(Br)c1)c1cccc(S(=O)(=O)N2CCCCCC2)c1	inactive
COc1ncc(-c2ccc3nccc(-c4ccnnc4)c3c2)cc1NS(=O)(=O)c1ccc(F)cc1F	inactive
O=C(O)c1ccc(-c2c[nH]c3ncc(-c4ccccc4)cc23)cc1C1CCCC1	inactive
CC1(C)CCC2=C(O1)c1ccccc1C(=O)C2=O	465 nM (active)
O=c1cc(-c2ccc(O)cc2)oc2cc(O)cc(O)c12	inactive
CN[C@@H](C)C(=O)N[C@H]1CN(C(=O)CC(C)C)CC[C@H]2CC[C@@H](C(=O)NC(c3ccccc3)c3ccccc3)N2C1=O	inactive
CC(=O)Nc1ccc([C@H](C)C(=O)Nc2ncc(C(C)C)s2)cc1	7370 nM (active)
COc1cc(N2CCC(N3CCN(C)CC3)CC2)ccc1Nc1ncc(Cl)c(Nc2ccccc2S(=O)(=O)C(C)C)n1	1040 nM (active)
CC1(C)O[C@H]2C[C@@H]3[C@H]4CCC5=CC(=O)C=C[C@]5(C)[C@@]4(F)[C@@H](O)C[C@]3(C)[C@]2(C(=O)CO)O1	inactive
Cc1nnc(C(C)C)n1C1C[C@H]2CC[C@@H](C1)N2CC[C@H](NC(=O)C1CCC(F)(F)CC1)c1ccccc1 (stereo partly drawn)	7370 nM (active)
CC[C@]1(O)C[C@@H]2CN(CCc3c([nH]c4ccccc34)[C@@](C(=O)OC)(c3cc4c(cc3OC)N(C=O)[C@@H]3C45CCN4CC=C[C@](CC)([C@H]45)[C@@H](OC(C)=O)[C@]3(O)C(=O)OC)C2)C1 (stereo partly drawn)	inactive
CC[C@]1(O)C[C@@H]2CN(CCc3c([nH]c4ccccc34)[C@@](C(=O)OC)(c3cc4c(cc3OC)N(C)[C@H]3[C@@](O)(C(=O)OC)[C@H](OC(C)=O)[C@]5(CC)C=CCN6CC[C@]43[C@@H]65)C2)C1	1170 nM (active)
CC(=NNC(=S)N1CCC1)c1ccccn1	inactive
